Biological target: human DLL3 protein expressed on CHO-K1 recombinant cells (human DLL3 extracellular segment fused to EpCAM transmembrane and intracellular regions) (human) (UniProt Q9NYJ7)
Sequence (Q9NYJ7 other isoform, or with tags, fused parts or gaps limits assumed): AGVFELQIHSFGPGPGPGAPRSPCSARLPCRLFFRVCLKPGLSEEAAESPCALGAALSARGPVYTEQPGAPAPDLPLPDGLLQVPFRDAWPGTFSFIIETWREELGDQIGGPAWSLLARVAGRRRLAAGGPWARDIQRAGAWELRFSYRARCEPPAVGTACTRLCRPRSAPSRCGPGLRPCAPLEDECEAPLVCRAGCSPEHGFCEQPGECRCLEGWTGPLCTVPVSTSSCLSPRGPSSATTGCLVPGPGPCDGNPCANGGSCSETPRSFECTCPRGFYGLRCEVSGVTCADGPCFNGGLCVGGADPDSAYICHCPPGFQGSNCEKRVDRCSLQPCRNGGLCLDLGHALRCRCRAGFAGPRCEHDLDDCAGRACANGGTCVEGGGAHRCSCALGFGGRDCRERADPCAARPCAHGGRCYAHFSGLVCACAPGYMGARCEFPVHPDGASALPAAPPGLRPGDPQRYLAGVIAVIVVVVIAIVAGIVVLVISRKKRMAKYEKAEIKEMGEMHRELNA
Assay: FACS, CHO-K1 hDLL3 cells, 0.0064 nM antibody
Listing of recorded MFI by entry.
A number alone suffices; assume MFI.

See these solved cases before continuing.
BI3 (antibody, human IgG1, kappa, V domains shown) VH: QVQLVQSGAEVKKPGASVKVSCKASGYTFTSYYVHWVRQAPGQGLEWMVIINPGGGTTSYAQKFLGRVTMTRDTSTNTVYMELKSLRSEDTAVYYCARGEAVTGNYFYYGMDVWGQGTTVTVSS VL: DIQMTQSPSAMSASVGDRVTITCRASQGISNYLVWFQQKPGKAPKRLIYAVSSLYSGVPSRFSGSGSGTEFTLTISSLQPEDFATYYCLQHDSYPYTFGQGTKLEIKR
452
Hab009VL1aVH1-hFc (scFv, part only; not given: scFv linker and human IgG1 Fc, V domains shown, not shown: another chain or arm of the molecule; a dimerising Fc or GST; small tags and cut ends) VL: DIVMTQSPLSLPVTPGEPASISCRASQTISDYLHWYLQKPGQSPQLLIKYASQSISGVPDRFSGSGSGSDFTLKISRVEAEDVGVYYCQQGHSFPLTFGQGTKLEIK VH: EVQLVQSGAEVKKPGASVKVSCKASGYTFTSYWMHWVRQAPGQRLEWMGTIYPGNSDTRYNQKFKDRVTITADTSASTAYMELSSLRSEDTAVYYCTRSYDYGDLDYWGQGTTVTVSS
452

What value of MFI has been reported for the following binder? Hab006VL4VH2-hFc (scFv, part only; not given: scFv linker and human IgG1 Fc, V domains shown, not shown: another chain or arm of the molecule; a dimerising Fc or GST; small tags and cut ends) VL: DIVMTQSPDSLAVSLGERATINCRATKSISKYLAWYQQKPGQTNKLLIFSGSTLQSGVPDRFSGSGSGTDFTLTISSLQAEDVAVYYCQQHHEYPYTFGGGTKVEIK VH: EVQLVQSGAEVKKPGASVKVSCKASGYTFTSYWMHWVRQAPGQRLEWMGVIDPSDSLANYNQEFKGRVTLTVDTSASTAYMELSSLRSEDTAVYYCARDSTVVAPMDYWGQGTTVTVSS
458
